// pIC50 lookup, one value per entry
biological target: PI3Kδ (p110δ/p85α) Recombinant Human Protein (Homo sapiens (Human), UniProt O00329); experiment: PI3Kδ Scintillation Proximity Assay
Sequence (O00329 whole entry): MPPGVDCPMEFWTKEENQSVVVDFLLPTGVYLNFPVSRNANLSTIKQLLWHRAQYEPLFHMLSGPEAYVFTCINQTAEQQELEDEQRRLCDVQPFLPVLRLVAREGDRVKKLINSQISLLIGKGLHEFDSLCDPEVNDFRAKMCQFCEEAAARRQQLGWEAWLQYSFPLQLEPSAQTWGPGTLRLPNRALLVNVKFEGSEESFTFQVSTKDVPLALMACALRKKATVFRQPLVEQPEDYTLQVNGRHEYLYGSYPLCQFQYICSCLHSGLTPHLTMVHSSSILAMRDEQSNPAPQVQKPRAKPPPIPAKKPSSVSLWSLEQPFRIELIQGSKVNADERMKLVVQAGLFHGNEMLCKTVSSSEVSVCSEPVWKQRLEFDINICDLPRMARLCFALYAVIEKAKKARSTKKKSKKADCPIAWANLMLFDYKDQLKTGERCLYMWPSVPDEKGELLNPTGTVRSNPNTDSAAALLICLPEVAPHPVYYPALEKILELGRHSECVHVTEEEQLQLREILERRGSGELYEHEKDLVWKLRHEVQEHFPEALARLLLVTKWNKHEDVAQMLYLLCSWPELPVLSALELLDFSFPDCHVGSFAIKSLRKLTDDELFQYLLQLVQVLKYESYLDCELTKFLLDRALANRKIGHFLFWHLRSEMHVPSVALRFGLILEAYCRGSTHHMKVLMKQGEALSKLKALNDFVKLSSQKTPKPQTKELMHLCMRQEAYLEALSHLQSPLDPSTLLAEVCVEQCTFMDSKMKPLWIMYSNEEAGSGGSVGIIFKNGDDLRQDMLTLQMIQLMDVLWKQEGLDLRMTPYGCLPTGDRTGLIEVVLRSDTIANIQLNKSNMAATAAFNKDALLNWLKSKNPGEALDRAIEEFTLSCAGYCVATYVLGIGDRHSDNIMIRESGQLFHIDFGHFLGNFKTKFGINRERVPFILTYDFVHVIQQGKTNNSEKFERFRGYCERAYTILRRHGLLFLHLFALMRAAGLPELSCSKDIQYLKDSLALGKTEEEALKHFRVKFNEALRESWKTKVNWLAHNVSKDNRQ
Sequence (P27986 whole entry partner): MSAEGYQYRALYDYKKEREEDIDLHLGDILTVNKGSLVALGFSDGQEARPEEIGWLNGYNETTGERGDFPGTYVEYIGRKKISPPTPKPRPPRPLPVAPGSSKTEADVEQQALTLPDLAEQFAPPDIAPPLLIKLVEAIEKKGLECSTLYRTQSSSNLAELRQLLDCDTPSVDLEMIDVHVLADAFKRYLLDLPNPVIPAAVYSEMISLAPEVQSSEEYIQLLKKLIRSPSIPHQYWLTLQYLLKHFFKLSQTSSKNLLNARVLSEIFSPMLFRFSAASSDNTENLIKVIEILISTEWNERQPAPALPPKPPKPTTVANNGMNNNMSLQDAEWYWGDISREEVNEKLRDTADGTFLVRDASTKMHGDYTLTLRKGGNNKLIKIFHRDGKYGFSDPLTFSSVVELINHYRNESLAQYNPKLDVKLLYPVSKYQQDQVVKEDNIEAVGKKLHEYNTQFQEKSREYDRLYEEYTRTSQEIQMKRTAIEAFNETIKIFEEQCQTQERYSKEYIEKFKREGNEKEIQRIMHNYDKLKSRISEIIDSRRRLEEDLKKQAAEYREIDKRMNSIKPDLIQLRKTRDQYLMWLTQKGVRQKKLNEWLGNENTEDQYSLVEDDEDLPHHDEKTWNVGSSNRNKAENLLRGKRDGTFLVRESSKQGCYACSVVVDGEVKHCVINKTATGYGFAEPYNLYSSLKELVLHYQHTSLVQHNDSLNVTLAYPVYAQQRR
pIC50: −log10 of the molar value. Counter-ions that a name gives are not always drawn.

// solved cases for pIC50 follow
{"COMPOUND": "Cc1ccc(S(=O)(=O)N[C@H]2CC[C@H](O)CC2)cc1-c1cnc2c(N)nc(-c3cnn(CC(F)(F)F)c3)cn12", "pIC50": "6.30 to 7.00"}
{"COMPOUND": "Nc1ncnn2c(-c3ccc(Cl)c(S(=O)(=O)NC45CCC(CO)(C4)C5)c3)cnc12 [Example 367, trifluoroacetate salt]", "pIC50": "6.30 to 7.00"}
{"COMPOUND": "[2H]C([2H])([2H])c1ccc(S(=O)(=O)NC23CCC(O)(C2)C3)cc1-c1cnc2c(N)nc(C(F)(F)F)cn12", "pIC50": "6.30 to 7.00"}
{"COMPOUND": "Cc1ccc(S(=O)(=O)NCC2(F)CCOCC2)cc1-c1cnc2c(N)ncnn12", "pIC50": "5.70 to 6.30"}
{"COMPOUND": "Cc1ccc(S(=O)(=O)N2C3CCC2CC(O)C3)cc1-c1cnc2c(N)ncnn12 (centres unmarked)", "pIC50": "6.30 to 7.00"}

[Q] Consider the compound Cc1ccc(S(=O)(=O)NC23COC(C#N)(C2)C3)cc1-c1cnc2c(N)nc(C(F)(F)F)cn12 [Example 429, trifluoroacetate salt] and give its measured pIC50.
[A] 6.30 to 7.00

[Q] I would be grateful if you could share the reported pIC50 for Cc1ccc(S(C)(=O)=O)cc1-c1cnc2c(N)nc(C(=O)NC3CCCN(CC#N)C3)cn12 (centres unmarked) [Example 459, trifluoroacetate salt] .
[A] < 5.70

[Q] Return reported pIC50; argument: Cc1ccc(S(C)(=O)=O)cc1-c1cnc2c(N)nc(C(=O)NCC3CCC(C(F)(F)F)CC3)cn12 (mixture of isomers)
[A] 6.30 to 7.00

[Q] What measured pIC50 goes with Cc1ccc(S(=O)(=O)N[C@H]2CC[C@H](O)CC2)cc1-c1cnc2c(N)c(-c3cnn(C)c3)ccn12 ?
[A] 6.30 to 7.00

[Q] I am curious: what pIC50 value has been reported for Cc1ncc(S(=O)(=O)NC23CCC(C#N)(C2)C3)cc1-c1cnc2c(N)nc(C(F)(F)F)cn12 ?
[A] 5.70 to 6.30

[Q] # pIC50 lookup, item O=C(O)C(F)(F)F.[2H]C([2H])([2H])c1ccc(S(=O)(=O)NC23CCC(C#N)(CC2)C3)cc1-c1cnc2c(N)ncnn12
[A] 6.30 to 7.00

[Q] Request the reported pIC50 associated with [2H]C([2H])([2H])c1ccc(S(=O)(=O)N(C)C23CCC(C#N)(C2)C3)cc1-c1cnc2c(N)ncnn12
[A] 5.70 to 6.30

[Q] Requested field: pIC50. Item: Cc1cn2c(-c3ccc(Cl)c(S(=O)(=O)N[C@H]4CC[C@](C)(O)CC4)c3)cnc2c(N)n1
[A] > 7.00

[Q] Give its pIC50 value. Item: Cc1ccc(S(=O)(=O)NC23CC(C)(C2)C3)cc1-c1cnc2c(N)ncnn12
[A] 5.70 to 6.30

* * *

target: PI3Kδ (p110δ/p85α) Recombinant Human Protein (Homo sapiens (Human), UniProt O00329); experiment: PI3Kδ Scintillation Proximity Assay
pIC50: −log10 of the molar value. Where a name gives a salt, the structure may show the parent alone.
ENDPOINT_LABEL: pIC50

[Q] Entry Cc1ccc(S(=O)(=O)N[C@H]2CC[C@H](NC(=O)OC(C)(C)C)CC2)cc1-c1cnc2c(N)nccn12 , system PI3Kδ (p110δ/p85α) Recombinant Human Protein (Homo sapiens (Human), UniProt O00329): what pIC50 was measured?
[A] < 5.70

[Q] // lookup pIC50 | system=PI3Kδ (p110δ/p85α) Recombinant Human Protein (Homo sapiens (Human), UniProt O00329) | key= Cc1nc(N)c2ncc(-c3cc(S(=O)(=O)NCC(O)C(F)(F)F)ccc3C)n2n1 (single isomer, unassigned) [Example 266]
[A] 6.30 to 7.00

[Q] Entry Cc1ccc(S(=O)(=O)N2CCC3(CCCO3)CC2)cc1-c1cnc2c(N)ncnn12 , system PI3Kδ (p110δ/p85α) Recombinant Human Protein (Homo sapiens (Human), UniProt O00329): what pIC50 was measured?
[A] 5.70 to 6.30

[Q] What measured pIC50 is associated with Cc1ccc(S(C)(=O)=O)cc1-c1cnc2c(N)nc(-c3ccc(C(F)F)cc3)cn12 [Example 475, trifluoroacetate] on PI3Kδ (p110δ/p85α) Recombinant Human Protein (Homo sapiens (Human), UniProt O00329)?
[A] 6.30 to 7.00

[Q] Find the measured pIC50: item Cc1ccc(S(=O)(=O)N[C@]2(C)C[C@H](O)C2)cc1-c1cnc2c(N)ncnn12 , target or system PI3Kδ (p110δ/p85α) Recombinant Human Protein (Homo sapiens (Human), UniProt O00329).
[A] 5.70 to 6.30

[Q] Form: Entry = Cc1ccc(S(=O)(=O)N2CCC3(CC2)COC(=O)N3)cc1-c1cnc2c(N)ncnn12 | System = PI3Kδ (p110δ/p85α) Recombinant Human Protein (Homo sapiens (Human), UniProt O00329) | pIC50 = ____
[A] 5.70 to 6.30

[Q] Checklist item: pIC50 tested on PI3Kδ (p110δ/p85α) Recombinant Human Protein (Homo sapiens (Human), UniProt O00329), entry Cc1ccc(S(=O)(=O)N2CC3C(O)C2CN3C2CCCC2C#N)cc1-c1cnc2c(N)nc(C(F)(F)F)nn12 (stereo not shown) , value?
[A] 5.70 to 6.30

* * *

test system: Phosphorylated Ribosomal Protein S6 (RPS6); assay: THP-1 RPS6 ELISA Assay; type: cell-based, Human; conditions: THP-1 cells; read-out: PI3Kγ_THP1_RPS6_ELISA IC50
Counter-ions that a name gives are not always drawn.
ENDPOINT_LABEL: IC50

{"MOLECULE": "CC(=O)N1CC(NS(=O)(=O)c2ccc(C)c(-c3cnc4c(N)ncnn34)c2)C1 [Example 103, trifluoroacetate salt]", "TESTED_ON": "Phosphorylated Ribosomal Protein S6 (RPS6)", "IC50": "> 1000 nM"}

[Q] // lookup IC50 for Cc1ccc(S(N)(=O)=O)cc1-c1cnc2c(N)nc(C(F)(F)F)nn12 [Example 336, trifluoroacetate salt]
[A] 100 to 500 nM

[Q] Requested field: IC50. Item: Cc1ccc(S(=O)(=O)NC2CN(C)C2)cc1-c1cnc2c(N)nc(C(F)(F)F)nn12
[A] < 100 nM

[Q] Tell me the measured IC50 of Cc1ccc(S(=O)(=O)NCC2(C#N)CCC2)cc1-c1cnc2c(N)ncnn12 [Example 102, trifluoroacetate salt] , please.
[A] 100 to 500 nM

* * *

biological target: PI3Kγ (p110γ) Recombinant Human Protein (Homo sapiens (Human), UniProt P48736); assay: PI3K-γ Scintillation Proximity Assay; format: biochemical; conditions: read-out: PI3Kγ IC50
Sequence (P48736 whole entry): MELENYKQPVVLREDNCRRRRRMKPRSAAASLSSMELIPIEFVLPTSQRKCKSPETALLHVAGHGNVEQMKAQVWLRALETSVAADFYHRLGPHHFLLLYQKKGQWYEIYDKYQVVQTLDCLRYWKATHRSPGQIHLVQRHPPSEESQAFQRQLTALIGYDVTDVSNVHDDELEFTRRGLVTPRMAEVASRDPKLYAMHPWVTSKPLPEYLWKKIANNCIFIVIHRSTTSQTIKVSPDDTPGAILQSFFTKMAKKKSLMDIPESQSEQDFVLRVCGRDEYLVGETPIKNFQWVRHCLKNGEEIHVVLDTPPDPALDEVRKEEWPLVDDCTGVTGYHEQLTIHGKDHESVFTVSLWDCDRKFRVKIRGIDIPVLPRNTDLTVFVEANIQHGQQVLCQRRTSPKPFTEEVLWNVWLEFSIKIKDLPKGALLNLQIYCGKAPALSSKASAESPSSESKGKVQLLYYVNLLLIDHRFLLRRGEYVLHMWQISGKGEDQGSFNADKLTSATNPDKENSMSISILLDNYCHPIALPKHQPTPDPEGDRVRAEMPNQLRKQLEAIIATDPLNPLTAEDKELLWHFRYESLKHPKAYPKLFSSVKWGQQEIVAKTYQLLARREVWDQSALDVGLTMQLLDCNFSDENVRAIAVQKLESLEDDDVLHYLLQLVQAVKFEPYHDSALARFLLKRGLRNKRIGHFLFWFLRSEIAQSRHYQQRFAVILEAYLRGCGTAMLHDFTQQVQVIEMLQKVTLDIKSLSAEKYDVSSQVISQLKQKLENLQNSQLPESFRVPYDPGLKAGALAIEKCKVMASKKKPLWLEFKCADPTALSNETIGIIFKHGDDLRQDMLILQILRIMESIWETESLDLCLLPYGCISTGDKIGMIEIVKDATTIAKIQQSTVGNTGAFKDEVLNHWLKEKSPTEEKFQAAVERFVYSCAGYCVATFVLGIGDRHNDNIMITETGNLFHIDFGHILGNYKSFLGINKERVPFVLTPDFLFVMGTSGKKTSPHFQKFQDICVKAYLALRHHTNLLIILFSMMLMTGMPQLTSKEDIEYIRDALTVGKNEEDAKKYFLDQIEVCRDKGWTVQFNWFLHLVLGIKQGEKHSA
pIC50: −log10 of the molar value. Where a name gives a salt, the structure may show the parent alone.
ENDPOINT_LABEL: pIC50

Some solved cases for reference:
{"MOLECULE": "CC(=O)NC1CCN(S(=O)(=O)c2ccc(C)c(-c3cnc4c(N)ncnn34)c2)C1 (stereo not shown)", "OBSERVED": "> 7.00"}
{"MOLECULE": "COC1CCCN(S(=O)(=O)c2ccc(C)c(-c3cnc4c(N)nc(C(F)(F)F)cn34)c2)C1 (stereo not shown)", "OBSERVED": "> 7.00"}
{"MOLECULE": "Cc1cc(C)c(S(=O)(=O)N[C@H]2CC[C@](C)(O)CC2)cc1-c1cnc2c(N)nc(C(F)(F)F)nn12 [Example 413, trifluoroacetate salt]", "OBSERVED": "> 7.00"}

Moving on to the next molecule.
[Q] API: value(readout= pIC50, system= PI3Kγ (p110γ) Recombinant Human Protein (Homo sapiens (Human), UniProt P48736), query= Cc1ccc(S(C)(=O)=O)cc1-c1cnc2c(N)nc(C(=O)NCCCn3cccn3)cn12 [Example 457, trifluoroacetate salt] )
[A] 6.30 to 7.00

* * *

biological target: PI3Kδ (p110δ/p85α) Recombinant Human Protein (Homo sapiens (Human), UniProt O00329); assay: PI3Kδ Scintillation Proximity Assay
pIC50: −log10 of the molar value. Counter-ions that a name gives are not always drawn.
This listing pairs molecules with measured pIC50.

Record excerpt, results attached:
{"MOLECULE": "O=C(O)C(F)(F)F.[2H]C([2H])([2H])c1ccc(S(=O)(=O)NC23CCC(C#N)(C2)C3)cc1-c1cnc2c(N)nc(C)cn12", "pIC50": "6.30 to 7.00"}
{"MOLECULE": "Nc1nc(C(F)(F)F)cn2c(-c3cccc(S(=O)(=O)NC45CCC(CO)(C4)C5)c3)cnc12 [Example 394, trifluoroacetate salt]", "pIC50": "6.30 to 7.00"}
{"MOLECULE": "Cc1ccc(S(=O)(=O)N[C@H]2CC[C@H](O)CC2)cc1-c1cnc2c(N)cc(-c3ccnn3C)cn12 [Example 10, bis(trifluoroacetate)]", "pIC50": "6.30 to 7.00"}
{"MOLECULE": "O=C(O)C(F)(F)F.[2H]C([2H])([2H])c1ccc(S(=O)(=O)NC23CCC(CO)(C2)C3)cc1-c1cnc2c(N)nc(C(F)(F)F)cn12", "pIC50": "6.30 to 7.00"}
{"MOLECULE": "Cc1ccc(S(=O)(=O)N2CC[C@H](N)C2)cc1-c1cnc2c(N)nc(C(F)(F)F)cn12 [Example 305, bis(trifluoroacetate)]", "pIC50": "6.30 to 7.00"}
{"MOLECULE": "Cc1ccc(S(=O)(=O)N2CC3C(O)C2CN3C2CCC(C#N)C2)cc1-c1cnc2c(N)nc(C(F)(F)F)nn12 (centres unmarked)", "pIC50": "5.70 to 6.30"}
{"MOLECULE": "CCN1CC2C(O)C1CN2S(=O)(=O)c1ccc(C)c(-c2cnc3c(N)nc(C(F)(F)F)nn23)c1 (centres unmarked)", "pIC50": "5.70 to 6.30"}
{"MOLECULE": "Cc1nc(N)c2ncc(-c3cc(S(=O)(=O)NC45CCC(C#N)(C4)C5)ccc3C)n2n1 [Example 265, trifluoroacetate salt]", "pIC50": "> 7.00"}
{"MOLECULE": "Cc1ccc(S(=O)(=O)N2CC3(CCN(C)C3=O)C2)cc1-c1cnc2c(N)ncnn12", "pIC50": "6.30 to 7.00"}
{"MOLECULE": "COc1cccc(-c2cn3c(-c4cc(S(=O)(=O)N[C@H]5CC[C@H](O)CC5)ccc4C)cnc3c(N)n2)c1F", "pIC50": "> 7.00"}

[Q] Request the reported pIC50 associated with Cc1cc(C)c(S(=O)(=O)N[C@H]2CC[C@](C)(O)CC2)cc1-c1cnc2c(N)nc(C(F)(F)F)nn12 [Example 413, trifluoroacetate salt]
[A] 6.30 to 7.00

[Q] Given the molecule Cc1nc(N)c2ncc(-c3cc(S(=O)(=O)NCC(C)(C)O)cc(F)c3C)n2n1 , what is its reported pIC50?
[A] 6.30 to 7.00

[Q] Tell me the measured pIC50 of Cc1ccc(S(=O)(=O)N2CCC(N(C)C)C2)cc1-c1cnc2c(N)ncnn12 (centres unmarked) , please.
[A] 5.70 to 6.30

[Q] I would be grateful if you could share the reported pIC50 for Cc1ccc(S(=O)(=O)N[C@H]2CC[C@H](N)CC2)cc1-c1cnc2c(N)nccn12 .
[A] 5.70 to 6.30
